meta.source: patent US20240247080A1

# Tested on: T1, human GIP receptor (human, UniProt P48546 22-466)
# T1 sequence (looked up): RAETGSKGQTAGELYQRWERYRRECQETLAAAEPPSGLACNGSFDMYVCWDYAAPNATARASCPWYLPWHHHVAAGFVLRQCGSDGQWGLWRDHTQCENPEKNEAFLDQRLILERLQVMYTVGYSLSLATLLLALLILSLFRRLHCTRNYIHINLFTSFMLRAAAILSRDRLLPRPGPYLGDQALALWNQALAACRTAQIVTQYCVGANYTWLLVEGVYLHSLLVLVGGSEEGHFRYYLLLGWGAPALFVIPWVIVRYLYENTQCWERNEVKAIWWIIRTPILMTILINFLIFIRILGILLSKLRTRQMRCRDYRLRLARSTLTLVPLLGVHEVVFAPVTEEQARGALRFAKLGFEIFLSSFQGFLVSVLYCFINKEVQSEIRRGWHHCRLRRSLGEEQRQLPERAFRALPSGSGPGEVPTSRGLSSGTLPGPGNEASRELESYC
# Protocol notes: cell-based or functional assay
Non-standard residues stand in square brackets, D forms with d. No end group written: not given here. Aib = CC(C)(N)C(=O)O
Endpoint name: EC50, CreLuc assay, 100% hP (nM)
Your answer is read as nM, so omit the unit and give the number.

| Binder | EC50, CreLuc assay, 100% hP, nM |
| --- | --- |
| YXDGTFTSDYSIXLEKQAQXAFVEWLIKGGPSSGASLRHYYNWLTRQRY (Aib at 2, 13, 20; K28 side chain: C20DA-gGlu-gGlu-gGlu-gGlu-gGlu-gGlu-eLys; C-terminal NH2) [Compound 87] | 5.65 |

Would you mind telling me what EC50, CreLuc assay, 100% hP value was observed for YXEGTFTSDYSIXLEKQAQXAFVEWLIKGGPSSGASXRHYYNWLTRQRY (Aib at 2, 13, 20, 37; DTyr 49; K28 side chain: C20DA-gGlu-gGlu-gGlu-gGlu-gGlu-gGlu-eLys; C-terminal NH2) [Compound 74] ? 0.62

Would you mind telling me what EC50, CreLuc assay, 100% hP value was observed for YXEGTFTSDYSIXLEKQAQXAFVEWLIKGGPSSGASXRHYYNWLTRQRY (Aib at 2, 13, 20, 37; NMeR 48; K28 side chain: C20DA-gGlu-gGlu-gGlu-gGlu-gGlu-gGlu-eLys; C-terminal NH2) [Compound 39] ? 0.4

Would you mind telling me what EC50, CreLuc assay, 100% hP value was observed for YXEGTFTSDYSIXLEKQAQXAFVEWLIKGGPSSYVSIRHYYNWLTRQRY (Aib at 2, 13, 20; K28 side chain: C20DA-gGlu-gGlu-gGlu-gGlu-gGlu-gGlu-eLys; C-terminal NH2) [Compound 9] ? 2.03

Would you mind telling me what EC50, CreLuc assay, 100% hP value was observed for Y[Aib]EGTFTSDYSI[Aib]LEKQAQ[Aib]AFVQWLIKGGQRYYASLRHYYNWLTRQRY-NH2 (not fully specified (residue 28); also: TFA salt) [Compound 6] ? 31.1
